Values compiled from patent US5917056A.

System: L1210 (murine leukemia)
TEST_METHOD_NOTES: Cytotoxicity on tumour cell lines, L1210 (murine leukemia)
Assay type: cell-based
ASSAY_SETUP: Mus musculus, exposure time 72 h
Method: Standard conditions: basal medium=RPMI 1640+20 mM HEPES+2 mM L-glutamine.
Kindly state pIC50 for each of the entries shown.
Answers are plain numbers, as −log10 of the molar value.

See these solved cases before continuing.
COMPOUND	MEASUREMENT
CC(=O)O[C@H]1C(=O)[C@@]2(C)[C@H]([C@H](OC(=O)c3ccccc3)[C@]3(O)C[C@H](OC(=O)[C@H](O)[C@@H](NC(=O)c4ccccc4)c4ccccc4)C(C)=C1C3(C)C)[C@]1(OC(C)=O)CO[C@@H]1C[C@@H]2O [Paclitaxel, paclitaxel, reference compound]	8.12
CCCCCC(=O)N[C@@H](C=C(C)C)[C@@H](O)C(=O)O[C@@H]1C(C)=C2[C@@H](OC(C)=O)C(=O)[C@@]3(C)[C@H]([C@H](OC(=O)c4ccccc4)[C@@]4(OS(=O)O[C@@H]14)C2(C)C)[C@]1(OC(C)=O)CO[C@@H]1C[C@@H]3O (stereo partly shown)	8.74
CC(=O)O[C@H]1C(=O)[C@@]2(C)[C@H]([C@H](OC(=O)c3ccccc3)[C@]34OC(=S)O[C@H]3[C@H](OC(=O)[C@H](O)[C@H](CC(C)C)NC(=O)OC(C)(C)C)C(C)=C1C4(C)C)[C@]1(OC(C)=O)CO[C@@H]1C[C@@H]2O	9.30

Would you kindly look at the next entry?
System L1210 (murine leukemia). Read-out pIC50. Item CCCCCC(=O)N[C@@H](C=C(C)C)[C@@H](O)C(=O)O[C@@H]1C(C)=C2[C@@H](OC(C)=O)C(=O)[C@@]3(C)[C@H]([C@H](OC(=O)c4ccccc4)[C@@]4(OC(=N)O[C@@H]14)C2(C)C)[C@]1(OC(C)=O)CO[C@@H]1C[C@@H]3O . Report value. 8.62

----------
Test system: HT-29 (Human colon)
TEST_METHOD_NOTES: Cytotoxicity on tumour cell lines, HT-29 (Human colon)
Assay type: cell-based
ASSAY_SETUP: exposure time 72 h
OBSERVED_PROPERTY: pIC50
Numbers only, as −log10 of the molar value.

COMPOUND	MEASUREMENT
CCCCCC(=O)N[C@@H](C=C(C)C)[C@@H](O)C(=O)O[C@@H]1C(C)=C2[C@@H](OC(C)=O)C(=O)[C@@]3(C)[C@H]([C@H](OC(=O)c4ccccc4)[C@@]4(OC(=N)O[C@@H]14)C2(C)C)[C@]1(OC(C)=O)CO[C@@H]1C[C@@H]3O [Compound 8]	9.30
CCCCCC(=O)N[C@@H](C=C(C)C)[C@@H](O)C(=O)O[C@@H]1C(C)=C2[C@@H](OC(C)=O)C(=O)[C@@]3(C)[C@H]([C@H](OC(=O)c4ccccc4)[C@@]4(OS(=O)O[C@@H]14)C2(C)C)[C@]1(OC(C)=O)CO[C@@H]1C[C@@H]3O (stereo partly shown) [Compound 9]	9.30
CC(=O)O[C@H]1C(=O)[C@@]2(C)[C@H]([C@H](OC(=O)c3ccccc3)[C@]34OC(=S)O[C@H]3[C@H](OC(=O)[C@H](O)[C@H](CC(C)C)NC(=O)OC(C)(C)C)C(C)=C1C4(C)C)[C@]1(OC(C)=O)CO[C@@H]1C[C@@H]2O [Compound 5]	9.52

Now for another entry.
Give pIC50 for the following compound: CC(=O)O[C@H]1C(=O)[C@@]2(C)[C@H]([C@H](OC(=O)c3ccccc3)[C@]3(O)C[C@H](OC(=O)[C@H](O)[C@@H](NC(=O)c4ccccc4)c4ccccc4)C(C)=C1C3(C)C)[C@]1(OC(C)=O)CO[C@@H]1C[C@@H]2O [Paclitaxel, paclitaxel, reference compound] 8.16
